B1: PIP5K1C peptide 642-657 (Phosphatidylinositol 4-phosphate 5-kinase type-1 gamma), 16-mer library wild type / TLN1 PTB (TLN1 Phosphotyrosine-binding (PTB) domain, residues 309-401) (parent)
chain 1: TDERSWVYSPLHYSAQ
chain 2: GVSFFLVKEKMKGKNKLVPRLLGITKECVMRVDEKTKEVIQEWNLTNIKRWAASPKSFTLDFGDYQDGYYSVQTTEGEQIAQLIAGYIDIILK

- Variants of: B1
- test.details: proteomic peptide phage display deep mutational scan (ProP-PD DMS): M13 P8 16-mer library selected against immobilised GST-tagged bait for four days (rounds), NGS of the eluted pools per day and pseudo-replica
- run.conditions: with TLN1 PTB (TLN1 Phosphotyrosine-binding (PTB) domain, residues 309-401); bait immobilised on MaxiSorp plates (10 µg), library pre-cleared on GST, 2 h binding at 4 °C, five washes; one round per day, days 1-4; value from days 2 and 3; keep out of graded; scale: average fractional NGS count over selection days 2 and 3
measured.quantity: screen value
Answer field: number only, no words.

QUERY: Give screen value for the following variant: chain 1 P10W
RESULT: 8.28e-05

QUERY: Report screen value, nothing else, for this variant: chain 1 R4I
RESULT: 3.79e-05

QUERY: Give screen value for chain 1 A15K
RESULT: 0

QUERY: Answer with reported screen value of chain 1 W6G
RESULT: 3.45e-05

QUERY: Find the measured screen value of chain 1 S9K and report it.
RESULT: 0

QUERY: Provide one value: measured screen value of chain 1 S9E
RESULT: 6.87e-05

QUERY: Note screen value for the variant shown: chain 1 A15Y
RESULT: 9.95e-05

QUERY: Tell me measured screen value for chain 1 L11K please.
RESULT: 8.99e-05

QUERY: Supply reported screen value belonging to this variant: chain 1 L11D
RESULT: 0

QUERY: Give screen value for chain 1 S9V
RESULT: 3.45e-05

QUERY: Report measured screen value; entry is chain 1 D2K
RESULT: 0.000108
